target: IL-23 (human, p19/p40 heterodimer) (Homo sapiens) (UniProt Q9NPF7+P29460); assay: filter; conditions: 2'-OMe C,U; DPBS Ca Mg
Sequence (Q9NPF7 20-189, chain 1 of 2): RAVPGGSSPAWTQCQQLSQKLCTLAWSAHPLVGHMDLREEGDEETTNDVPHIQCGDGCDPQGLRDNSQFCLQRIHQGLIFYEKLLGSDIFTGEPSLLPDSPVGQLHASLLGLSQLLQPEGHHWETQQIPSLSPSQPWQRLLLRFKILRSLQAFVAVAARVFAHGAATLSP
Sequence (P29460 23-328, chain 2 of 2): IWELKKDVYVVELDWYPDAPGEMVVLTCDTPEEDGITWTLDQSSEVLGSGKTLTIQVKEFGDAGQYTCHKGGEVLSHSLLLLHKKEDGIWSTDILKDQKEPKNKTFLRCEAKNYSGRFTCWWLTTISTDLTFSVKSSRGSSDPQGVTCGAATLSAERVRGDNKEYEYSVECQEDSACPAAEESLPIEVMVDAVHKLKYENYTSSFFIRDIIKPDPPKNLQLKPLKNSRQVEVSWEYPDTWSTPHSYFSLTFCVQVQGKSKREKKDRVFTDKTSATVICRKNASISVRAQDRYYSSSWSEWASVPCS
parameter_measured: Kd (nM)

[[record]]
item_sequence = "GGGAGAGGAGAGAACGUUCUACGGAAGGNAACAANAGCACUGUUUGUGCAGGCGCUGUCGAUCNAUCNAUCNAUG [rRmY clone SEQ 85]"
system = "IL-23 (human, p19/p40 heterodimer) (Homo sapiens) (UniProt Q9NPF7+P29460)"
result = 240


---

target: IL-23 (human, p19/p40 heterodimer) (Homo sapiens) (UniProt Q9NPF7+P29460); assay: filter; conditions: deoxy A,G; 2'-OMe C,U; dI at G16,G17; 3'-idT [16,17]; DPBS Ca Mg
pKd: −log10 of the molar value.
parameter_measured: pKd

[[record]]
item_sequence = "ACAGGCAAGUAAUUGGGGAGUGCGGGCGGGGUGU [ARC1600]"
result = 7.81

